# EXPERIMENTAL TARGET: Voltage-dependent T-type calcium channel subunit alpha-1G (Homo sapiens)
# Sequence (O43497 whole entry): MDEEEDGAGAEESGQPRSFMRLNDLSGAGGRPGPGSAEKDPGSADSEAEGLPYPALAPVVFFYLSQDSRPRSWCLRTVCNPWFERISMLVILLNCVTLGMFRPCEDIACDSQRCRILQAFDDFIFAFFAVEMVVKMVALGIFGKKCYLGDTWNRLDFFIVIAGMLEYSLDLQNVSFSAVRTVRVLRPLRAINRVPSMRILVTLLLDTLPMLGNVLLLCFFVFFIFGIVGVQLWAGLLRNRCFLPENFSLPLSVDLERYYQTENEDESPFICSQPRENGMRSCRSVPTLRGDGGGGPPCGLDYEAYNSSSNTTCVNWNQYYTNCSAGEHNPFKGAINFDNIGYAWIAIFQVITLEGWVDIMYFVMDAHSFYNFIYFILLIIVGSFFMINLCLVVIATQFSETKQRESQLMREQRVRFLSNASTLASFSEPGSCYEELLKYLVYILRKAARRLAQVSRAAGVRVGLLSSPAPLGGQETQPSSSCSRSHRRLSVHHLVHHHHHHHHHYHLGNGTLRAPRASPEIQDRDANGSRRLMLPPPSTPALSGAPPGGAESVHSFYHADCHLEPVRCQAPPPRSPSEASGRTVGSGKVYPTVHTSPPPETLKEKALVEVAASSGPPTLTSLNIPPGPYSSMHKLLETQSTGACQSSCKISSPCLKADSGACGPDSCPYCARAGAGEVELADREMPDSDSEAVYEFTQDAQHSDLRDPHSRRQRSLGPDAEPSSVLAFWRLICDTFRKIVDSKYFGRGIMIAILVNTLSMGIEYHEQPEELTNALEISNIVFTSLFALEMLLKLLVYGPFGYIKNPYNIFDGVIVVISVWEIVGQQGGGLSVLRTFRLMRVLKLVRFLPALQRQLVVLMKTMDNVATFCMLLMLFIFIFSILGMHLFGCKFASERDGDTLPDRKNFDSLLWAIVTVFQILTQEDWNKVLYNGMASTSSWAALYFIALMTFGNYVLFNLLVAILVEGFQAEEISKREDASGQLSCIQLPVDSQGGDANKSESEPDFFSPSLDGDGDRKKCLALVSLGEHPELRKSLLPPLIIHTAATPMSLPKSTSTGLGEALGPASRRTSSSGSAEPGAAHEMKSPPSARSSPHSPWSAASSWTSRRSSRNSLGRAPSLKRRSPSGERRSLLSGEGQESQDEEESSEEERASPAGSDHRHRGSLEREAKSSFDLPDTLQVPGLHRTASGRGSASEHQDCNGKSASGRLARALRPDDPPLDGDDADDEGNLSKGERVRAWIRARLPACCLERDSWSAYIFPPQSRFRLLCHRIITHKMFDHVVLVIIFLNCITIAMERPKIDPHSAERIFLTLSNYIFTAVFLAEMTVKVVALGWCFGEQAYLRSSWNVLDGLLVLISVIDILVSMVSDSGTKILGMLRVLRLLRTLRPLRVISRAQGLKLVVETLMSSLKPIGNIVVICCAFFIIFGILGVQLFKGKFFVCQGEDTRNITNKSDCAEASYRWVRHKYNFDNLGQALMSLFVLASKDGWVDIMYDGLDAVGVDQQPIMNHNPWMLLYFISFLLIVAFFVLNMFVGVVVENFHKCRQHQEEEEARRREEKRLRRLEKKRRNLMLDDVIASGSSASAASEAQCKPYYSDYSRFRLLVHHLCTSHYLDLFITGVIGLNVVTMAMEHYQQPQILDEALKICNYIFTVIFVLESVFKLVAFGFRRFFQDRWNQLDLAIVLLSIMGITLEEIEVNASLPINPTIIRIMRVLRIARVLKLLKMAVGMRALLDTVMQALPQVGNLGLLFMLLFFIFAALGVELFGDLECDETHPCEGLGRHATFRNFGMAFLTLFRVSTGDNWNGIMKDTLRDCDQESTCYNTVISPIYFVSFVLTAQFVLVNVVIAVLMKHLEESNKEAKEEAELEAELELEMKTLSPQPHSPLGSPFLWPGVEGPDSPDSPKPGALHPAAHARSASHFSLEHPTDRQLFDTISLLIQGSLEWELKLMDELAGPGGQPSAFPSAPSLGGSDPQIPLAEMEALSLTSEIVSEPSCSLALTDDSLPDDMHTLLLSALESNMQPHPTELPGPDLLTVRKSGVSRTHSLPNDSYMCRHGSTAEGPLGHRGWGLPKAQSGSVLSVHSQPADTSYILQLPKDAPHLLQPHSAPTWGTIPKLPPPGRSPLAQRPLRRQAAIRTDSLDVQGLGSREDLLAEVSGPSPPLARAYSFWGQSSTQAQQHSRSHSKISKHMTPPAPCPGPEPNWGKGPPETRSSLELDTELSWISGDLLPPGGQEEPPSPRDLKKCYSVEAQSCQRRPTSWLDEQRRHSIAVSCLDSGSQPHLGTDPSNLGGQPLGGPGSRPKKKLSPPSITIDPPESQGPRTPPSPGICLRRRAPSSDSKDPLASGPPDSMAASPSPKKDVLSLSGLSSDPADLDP
# EXPERIMENT SUMMARY: Inhibition of Cav3.1 channel (unknown origin) assessed as reduction in peak currents at 10 uM by whole cell patch-clamp method
Known inhibition of a selection of compounds
Reply numerically in %, unit not repeated.

For orientation, consider the following solved cases.
The reported Voltage-dependent T-type calcium channel subunit alpha-1G (Homo sapiens) inhibition of COc1ccc(-c2ccc(CNc3cccc(C(N)=O)c3)o2)cc1Cl is 41.6

Bench note, Voltage-dependent T-type calcium channel subunit alpha-1G (Homo sapiens): COc1cc(CNCc2ccc(N3CCOCC3)cc2)cc(OC)c1OC , inhibition reads 9.8

Lab entry: Voltage-dependent T-type calcium channel subunit alpha-1G (Homo sapiens) assay, compound NC(=O)c1cccc(NCc2ccc(-c3ccc(Cl)cc3)o2)c1 , inhibition = 14.5

// switching to the query compound
Item NC(=O)c1cccc(NCc2cc(-c3ccc(Cl)cc3)on2)c1 ; assay system Voltage-dependent T-type calcium channel subunit alpha-1G (Homo sapiens); inhibition reported as 25.2
